value-type: melting point

compound="O=C(O)c1cn(-c2ccc(F)cc2)c2cc(N3CCNC(COc4ccccc4)C3)c(F)cc2c1=O (stereo not drawn)" value_type="melting point" reported_result="204 to 207 °C"
compound=CS(=O)(=O)c1cc(C(=O)O)c(N)cc1Cl value_type="melting point" reported_result="284 to 286 °C"
compound="CN1C(=O)C(c2ccc(OC(F)F)cc2)(c2cccc(CCCC(F)F)c2)N=C1N (stereo not drawn)" value_type="melting point" reported_result="54 to 57 °C"
compound=CCOC(=O)/C(=N\OC12CCC(CC1)CC2)c1csc(N)n1 value_type="melting point" reported_result="139 to 140 °C"
compound=CN1CCN(CCCOc2ccccc2Nc2nc(C#N)nc3c2ncn3C2CCCC2)CC1 value_type="melting point" reported_result="136 to 138 °C"
compound="CN1Cc2ccccc2C(O)(Cc2ccc(Cl)cc2F)C1 (stereo not drawn)" value_type="melting point" reported_result="113 to 116 °C"
compound=C=CCc1cc2c(c(CC=C)c1O)CCC(=O)N2CCO value_type="melting point" reported_result="106 to 108 °C"
compound=COc1ccc(Oc2cccc(C3C4=C(CC(C)(C)CC4=O)NC4=C3C(=O)CC(C)(C)C4)c2)cc1 value_type="melting point" reported_result="210 to 212 °C"
compound=Cn1cc(C(=O)O)c(=O)c2c3cc(N4CCN(c5ccc(F)c(Cl)c5)CC4)c(Cl)c(F)c3ncc21 value_type="melting point" reported_result="> 260 °C"
compound=O=c1ccc2c(C(F)(F)F)cc(C(F)(F)F)nc2[nH]1 value_type="melting point" reported_result="182 to 184 °C"
compound=Cc1ccc(NC(=O)/C=C/c2ccccc2C(F)(F)F)cc1NC(=N)c1ccccc1 value_type="melting point" reported_result="112 to 116 °C"
compound=Nc1ccc(Oc2ccc(C(c3ccc(Oc4ccc(N)c(O)c4)cc3)(C(F)(F)F)C(F)(F)F)cc2)cc1O value_type="melting point" reported_result="178 to 181 °C"
compound=c1ccc(OCCSCc2nnc(-c3ccc4cc(CN5CCCCC5)ccc4c3)o2)cc1 value_type="melting point" reported_result="93 to 94 °C"
compound="CCn1cc(C(=O)O)c(=O)c2cc(F)c(N3CCNC(c4ccn(S(=O)(=O)c5ccccc5)c4)C3)cc21 (stereo not drawn)" value_type="melting point" reported_result="120 °C"
compound="CCOC(=O)[C@@H]1CSCCCCCCCC(CSC(C)=O)C(=O)N1 (stereo partly drawn)" value_type="melting point" reported_result="193 to 196 °C"
compound="Nc1ncccc1C(=O)NCC1CCN(CC2COc3ccccc3O2)CC1 (stereo not drawn)" value_type="melting point" reported_result="104 to 106 °C"
compound=Cc1nn(C)c(C)c1C(=O)Nc1cccc2c1CCC2(C)C value_type="melting point" reported_result="152 °C"
compound=CC(=O)c1cc(-c2ccc(C(C)(C)C)cc2)c2c(c1)C(C)(C)CCC2(C)C value_type="melting point" reported_result="134 °C"
compound="CC(C)N(CCON=C1c2ccccc2C2CC2c2ccccc21)C(C)C (stereo not drawn)" value_type="melting point" reported_result="97 to 98 °C"
compound="CCCCCCOC(=O)OC(C)OC1=C(C(=O)Nc2ccccn2)N(C)S(=O)(=O)c2ccccc21 (stereo not drawn)" value_type="melting point" reported_result="86 to 87 °C"
compound=CCOC(=O)CN(Cc1ccccc1)C(=S)CCc1nc2c(F)c(F)cc(F)c2s1 value_type="melting point" reported_result="86 to 88 °C"
compound=ON=Cc1cccc(OCCN2CCC(Cc3ccccc3)CC2)c1 value_type="melting point" reported_result="141 to 143 °C"
compound=COc1ccccc1C(=NO)c1sccc1Br value_type="melting point" reported_result="129 to 130 °C"
compound="CC1(C)Cc2sccc2C(NC(N)=O)C1 (stereo not drawn)" value_type="melting point" reported_result="174 to 178 °C"
compound=Cc1c(-c2ccccc2)oc2c(C(=O)OCCN3CCOCC3)cc(Cl)cc2c1=O value_type="melting point" reported_result="68 to 73 °C"
compound=COC(=O)c1cc(OC)c(Br)cc1Cl value_type="melting point" reported_result="78 to 79 °C"
compound=Cc1nn(C)c2c1N(C(=O)CN(C(C)C)C(C)C)c1ccccc1NC2=O value_type="melting point" reported_result="154 to 156 °C"
compound="C#CCC1(c2ccc(Cl)cc2)Cc2cc(OCC(=O)O)c(Cl)c(Cl)c2C1=O (stereo not drawn)" value_type="melting point" reported_result="200 to 201 °C"
compound=CCCc1nc2sc3c(NCc4cccnc4)ncnc3c2c2c1COC(C)(C)C2 value_type="melting point" reported_result="259 to 260 °C"
compound="CCC(NC(=O)OC)c1ccc(Cl)c2nc3n(c12)CCCN3c1c(Cl)cc(Cl)cc1Cl (stereo not drawn)" value_type="melting point" reported_result="231 to 233 °C"
compound=O=C1C(Br)=C(Br)C(=O)c2c(F)cccc21 value_type="melting point" reported_result="100 °C"
compound="O=C1CCC(N2Cc3cc(CNC(=O)c4cccc(C(F)(F)F)c4)ccc3C2=O)C(=O)N1 (stereo not drawn)" value_type="melting point" reported_result="244 to 246 °C"
compound=O=C(Nc1nnn[nH]1)c1cccc([N+](=O)[O-])c1Cl value_type="melting point" reported_result="279 °C"
compound=O=C(NCCCN1CCN(c2ccc(F)cc2OCC(F)(F)F)CC1)c1csc2c(=O)cc(-c3ccccc3)oc12 value_type="melting point" reported_result="189 to 191 °C"
compound="C=CCOC1OC(C(O)CO)C(OCc2ccccc2)C1O (stereo not drawn)" value_type="melting point" reported_result="84 to 85 °C"
compound="CCOC(=O)C(O)=Cc1ccc(S(=O)c2ccc(F)cc2)cn1 (stereo not drawn)" value_type="melting point" reported_result="148 to 150 °C"
compound=COc1cc(COc2cc(CCc3ccccn3)n(-c3ccccc3)n2)ccc1OCc1nc(-c2ccco2)oc1C value_type="melting point" reported_result="104 to 105 °C"
compound=N#CC1(c2ccccc2)CCN(C(=O)CC(c2ccccc2)(c2ccccc2)c2ccccc2)CC1 value_type="melting point" reported_result="188 to 190 °C"
